Data origin: patent US20070238700A1

Test system: Rhipicephalus sanguineus
Assay: Rapid screening protocol for topical application on brown dog ticks (% mortality)
Details: data from laboratory 2
readout label: R. sanguineus Mortality (%) 24 h
Write the quantity with the unit trailing the number.

These recorded examples may help you get a feel for the data.
>  <molecule>
CC(=NN(c1ccc(F)cc1)C(C)C)c1cc(Cl)ccc1NS(=O)(=O)C(F)(F)F

>  <test target>
Rhipicephalus sanguineus

>  <result>
80%

$$$$
>  <molecule>
CCCN(N=C(C)c1cc(Cl)ccc1NS(=O)(=O)C(F)(F)F)c1ccc(C(F)(F)F)cc1

>  <test target>
Rhipicephalus sanguineus

>  <result>
100%

$$$$
>  <molecule>
CCCN(N=C(C)c1cc(Cl)ccc1NS(=O)(=O)C(F)(F)F)c1ccc(F)cc1

>  <test target>
Rhipicephalus sanguineus

>  <result>
75%

$$$$
>  <molecule>
C/C(=N\N(C)C1CCCCC1)c1cc(Cl)ccc1NS(=O)(=O)C(F)(F)F

>  <test target>
Rhipicephalus sanguineus

>  <result>
73%

$$$$
>  <molecule>
CCC(=NN(C)C(=O)c1ccc(Cl)cc1)c1cc(Cl)ccc1NS(=O)(=O)C(F)(F)F

>  <test target>
Rhipicephalus sanguineus

>  <result>
100%

$$$$

Need R. sanguineus Mortality (%) 24 h, item `CC(=NN(C)c1ccc(Cl)c(Cl)c1)c1cc(Cl)ccc1NS(=O)(=O)C(F)(F)F` 78%

Need R. sanguineus Mortality (%) 24 h, item `CC(=NN(C)c1ccc(Br)cc1)c1cc(Cl)ccc1NS(=O)(=O)C(F)(F)F` 100%

Need R. sanguineus Mortality (%) 24 h, item `CC(=NN(C)c1cccc(Cl)c1Cl)c1cc(Cl)ccc1NS(=O)(=O)C(F)(F)F` 70%

Need R. sanguineus Mortality (%) 24 h, item CCC(=NN1CCCCC1)c1cc(Cl)ccc1NS(=O)(=O)C(F)(F)F [Compound 130] 98%

Need R. sanguineus Mortality (%) 24 h, item `CC(=NN(c1ccccc1Cl)C(C)C)c1cc(Cl)ccc1NS(=O)(=O)C(F)(F)F` 45%

Need R. sanguineus Mortality (%) 24 h, item `CC(=NN(C)c1ccc(Cl)cc1)c1cc(Cl)ccc1NS(=O)(=O)C(F)(F)F` 95%

Need R. sanguineus Mortality (%) 24 h, item `CC(=O)N(CCC#N)/N=C(\C)c1cc(Cl)ccc1NS(=O)(=O)C(F)(F)F` 90%

Need R. sanguineus Mortality (%) 24 h, item `CCN(N=C(C)c1cc(Cl)ccc1N(C)S(=O)(=O)C(F)(F)F)c1ccccc1F` 3%

Need R. sanguineus Mortality (%) 24 h, item `CC(=NN(C)c1cccc(F)c1)c1cc(Cl)ccc1NS(=O)(=O)C(F)(F)F` 100%
